System: PXR:RXRa (NR concentration 270 nM, RXRa partner concentration 90 nM)
Experiment: PBM binding z-score (relative to random genomic background probes); higher = stronger binding; sequences stand for … in GC…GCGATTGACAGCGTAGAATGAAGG
ATTRIBUTE_MEASURED: PBM binding z-score

seq_text=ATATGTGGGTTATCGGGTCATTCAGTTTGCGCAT recorded_result=3.93
seq_text=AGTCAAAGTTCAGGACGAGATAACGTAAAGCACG recorded_result=1.99
seq_text=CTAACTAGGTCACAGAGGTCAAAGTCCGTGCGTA recorded_result=6.74
seq_text=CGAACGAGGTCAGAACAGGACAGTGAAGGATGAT recorded_result=3.87
seq_text=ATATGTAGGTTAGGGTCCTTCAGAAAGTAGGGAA recorded_result=0.573
seq_text=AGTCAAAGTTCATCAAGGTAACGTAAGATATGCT recorded_result=5.4
seq_text=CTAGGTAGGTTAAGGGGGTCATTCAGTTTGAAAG recorded_result=5.85
seq_text=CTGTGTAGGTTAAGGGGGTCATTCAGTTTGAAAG recorded_result=5.84
seq_text=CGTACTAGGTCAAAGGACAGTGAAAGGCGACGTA recorded_result=1.14
seq_text=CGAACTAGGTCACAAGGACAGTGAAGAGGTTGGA recorded_result=1.25
seq_text=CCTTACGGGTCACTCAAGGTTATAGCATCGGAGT recorded_result=6.13
seq_text=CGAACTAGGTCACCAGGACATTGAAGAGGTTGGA recorded_result=1.66
seq_text=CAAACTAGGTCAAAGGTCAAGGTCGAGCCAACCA recorded_result=7.26
seq_text=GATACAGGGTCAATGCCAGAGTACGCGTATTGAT recorded_result=2.96
seq_text=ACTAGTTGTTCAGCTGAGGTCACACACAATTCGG recorded_result=4.83
seq_text=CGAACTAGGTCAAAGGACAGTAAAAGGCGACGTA recorded_result=1.14
seq_text=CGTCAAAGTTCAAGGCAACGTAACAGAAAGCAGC recorded_result=3.56
seq_text=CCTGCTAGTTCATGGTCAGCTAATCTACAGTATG recorded_result=0.563
seq_text=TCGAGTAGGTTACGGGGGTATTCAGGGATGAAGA recorded_result=2.09
seq_text=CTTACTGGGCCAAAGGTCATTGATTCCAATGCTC recorded_result=5.66
seq_text=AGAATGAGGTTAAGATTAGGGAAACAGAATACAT recorded_result=1.24
seq_text=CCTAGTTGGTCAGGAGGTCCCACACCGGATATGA recorded_result=-0.0476
seq_text=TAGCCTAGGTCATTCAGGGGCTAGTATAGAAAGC recorded_result=2.36
seq_text=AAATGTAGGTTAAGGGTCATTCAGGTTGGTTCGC recorded_result=5.32
seq_text=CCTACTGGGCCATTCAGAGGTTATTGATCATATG recorded_result=0.724
seq_text=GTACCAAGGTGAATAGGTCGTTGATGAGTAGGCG recorded_result=0.719

---

Tested on: RXRa homodimer (NR concentration 180 nM)
Assay: PBM binding z-score (relative to random genomic background probes); higher = stronger binding; sequences stand for … in GC…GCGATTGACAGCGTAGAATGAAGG
PBM binding z-score vs 2: at or above is T, below is F.

seq_text=GGAACGGGGGCAAGTTGATAGCAGAGTTTGATGG class=T
seq_text=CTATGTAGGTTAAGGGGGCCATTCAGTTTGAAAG class=F
seq_text=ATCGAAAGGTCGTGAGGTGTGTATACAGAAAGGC class=T
seq_text=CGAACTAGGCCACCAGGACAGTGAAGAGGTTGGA class=F
seq_text=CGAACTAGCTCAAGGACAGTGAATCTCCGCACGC class=F
seq_text=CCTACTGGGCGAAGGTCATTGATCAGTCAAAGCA class=T
seq_text=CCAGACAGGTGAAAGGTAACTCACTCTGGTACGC class=T
seq_text=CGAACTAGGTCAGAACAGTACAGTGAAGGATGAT class=F
seq_text=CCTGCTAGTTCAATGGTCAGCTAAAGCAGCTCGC class=F
seq_text=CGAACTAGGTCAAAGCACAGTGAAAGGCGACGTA class=T
seq_text=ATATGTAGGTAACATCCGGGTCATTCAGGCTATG class=T
seq_text=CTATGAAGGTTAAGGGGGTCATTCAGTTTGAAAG class=T
seq_text=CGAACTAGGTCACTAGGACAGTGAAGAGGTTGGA class=T
seq_text=TCTGCTAGGTCAACGATGGTCAGCGAATCTGCTA class=T
seq_text=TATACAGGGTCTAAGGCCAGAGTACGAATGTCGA class=F
seq_text=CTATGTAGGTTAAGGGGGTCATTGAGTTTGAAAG class=T
seq_text=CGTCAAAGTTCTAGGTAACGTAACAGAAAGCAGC class=F
seq_text=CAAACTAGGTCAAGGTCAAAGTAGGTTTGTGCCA class=T
seq_text=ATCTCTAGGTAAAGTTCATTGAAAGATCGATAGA class=T
seq_text=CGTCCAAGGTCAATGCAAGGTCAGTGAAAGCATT class=T
seq_text=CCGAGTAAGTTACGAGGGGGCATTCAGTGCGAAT class=F
seq_text=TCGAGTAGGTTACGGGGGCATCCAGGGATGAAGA class=T
seq_text=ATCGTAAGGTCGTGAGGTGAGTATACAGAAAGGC class=T
seq_text=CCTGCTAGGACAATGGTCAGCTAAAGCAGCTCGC class=F
seq_text=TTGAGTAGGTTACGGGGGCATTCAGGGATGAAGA class=T
seq_text=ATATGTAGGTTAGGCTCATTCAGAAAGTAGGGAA class=F

Provenance of the data: the supplement of paper PMC6555819
